Measured EC50 values are reported for all entries that follow.
assayed target: Heat shock factor protein 1 (Mus musculus)
Sequence (P38532 whole entry): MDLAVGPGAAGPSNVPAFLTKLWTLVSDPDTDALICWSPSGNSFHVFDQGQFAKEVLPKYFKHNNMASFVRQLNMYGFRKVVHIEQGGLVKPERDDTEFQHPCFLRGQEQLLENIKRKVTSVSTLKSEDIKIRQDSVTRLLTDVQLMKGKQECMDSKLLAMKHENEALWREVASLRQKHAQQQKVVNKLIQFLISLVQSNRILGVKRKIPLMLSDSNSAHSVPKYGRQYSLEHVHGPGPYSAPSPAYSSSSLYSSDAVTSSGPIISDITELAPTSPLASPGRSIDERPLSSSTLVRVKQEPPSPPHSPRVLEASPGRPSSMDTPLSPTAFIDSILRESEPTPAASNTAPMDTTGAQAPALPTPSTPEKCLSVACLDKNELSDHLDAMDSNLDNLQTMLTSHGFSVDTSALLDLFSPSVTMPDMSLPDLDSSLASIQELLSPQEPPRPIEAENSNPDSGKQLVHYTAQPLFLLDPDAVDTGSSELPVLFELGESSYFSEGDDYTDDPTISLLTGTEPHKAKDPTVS
measurement notes: decrease of HSF1-responsive luciferase luminescence – cell-based, NIH3T3, dose retest, confirmation (AID 2382);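 also: NIH3T3 fibroblasts with HSF1-driven luciferase reporter stressed by proteasome inhibitor MG132; luminescence from HSF1-driven luciferase expression after 8 hours of MG132 stress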
Assay type: functional
The source made the active and inactive calls.

Look over these answered cases.
Reported EC50 for CC(=O)c1ccc(NC(=O)C(C)n2nc(-c3ccccc3)c3cc(Cl)ccc32)cc1 (stereo not given) : what is it? > 195 µM (not active)

Reported EC50 for Cc1c(Cc2ccccc2)sc(/N=C/c2c(O)ccc3ccccc23)c1C(N)=O : what is it? > 195 µM (not active)

Reported EC50 for CCCC(=O)Nc1ccc(Cl)c(NC(=O)c2cccnc2)c1 : what is it? > 195 µM (not active)

Reported EC50 for Cc1oc(-c2ccc3c(c2)OCCO3)cc1C(=O)O : what is it? 0.312 µM (active)

Reported EC50 for Cc1ccc(C)c(N2CCN(CCN3CCCCC3)CC2)c1 : what is it? > 195 µM (not active)

Reported EC50 for O=C(NCc1ccncc1)c1ccc(Cl)c(S(=O)(=O)N2CCOCC2)c1 : what is it? > 195 µM (not active)

Others:
Reported EC50 for CCOC(=O)c1c(C)[nH]c(C(=O)COC(=O)C2=NNC(=O)CC2)c1C : what is it? > 195 µM (not active)

Reported EC50 for CC(=O)C1=C(O)C(=O)N(c2ccc(C)cc2)C1c1ccccn1 (stereo not given) : what is it? > 195 µM (not active)

Reported EC50 for COc1cc(OC)cc(C(=O)N2CCN(S(C)(=O)=O)CC2)c1 : what is it? > 195 µM (not active)

Reported EC50 for COc1ccc(OC2C(=O)N(Cc3ccc4c(c3)OCO4)C2c2sccc2C)cc1 (stereo not given) : what is it? > 195 µM (not active)

====

Measured AC50 values are reported for all entries that follow.
System: INS1
measurement notes: INS-1E survival protection against cytokine death – cell-based, luminescence, retest, dose response (AID 449756);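 also: cell death triggered by IL-1 beta plus TNF-alpha plus IFN-gamma mixture; protective hits raise ATP signal compared with cytokine alone wells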
Assay type: functional
measurement conditions: Rattus norvegicus
The source made the active and inactive calls.

Look over these answered cases.
Reported AC50 for C/C(=N\NC(=O)c1cc(C)nc2ccccc12)c1ccccn1 : what is it? 0.626 µM (active)

Reported AC50 for FC(F)(F)c1cnc(NN=C(S)Nc2ccc(Cl)cc2)c(Cl)c1 : what is it? 3.44 µM (active)

Others:
Reported AC50 for O=C(Nc1ccc(C(=O)Nc2ccccc2Cl)cc1)c1cccnc1 : what is it? 1.06 µM (active)

Reported AC50 for CCc1ccc2c(c1)C1(C(=O)N2)N2CCCC2C(C(=O)c2ccc3ccccc3c2)C12C(=O)Nc1ccccc12 (configuration not stated) : what is it? 6.87 µM (active)

Reported AC50 for O=C(COC(=O)c1cn(-c2ccccc2)nc1-c1ccccc1)c1cccc([N+](=O)[O-])c1 : what is it? 4.4 µM (active)

Reported AC50 for Cc1onc(-c2ccccc2)c1C(=O)NC(=S)NNC(=O)c1ccccc1O : what is it? 7.21 µM (active)
